# target-or-test-system: mouse melanocortin-3 receptor (mouse, UniProt P33033 1-323)
# Sequence (P33033 whole entry): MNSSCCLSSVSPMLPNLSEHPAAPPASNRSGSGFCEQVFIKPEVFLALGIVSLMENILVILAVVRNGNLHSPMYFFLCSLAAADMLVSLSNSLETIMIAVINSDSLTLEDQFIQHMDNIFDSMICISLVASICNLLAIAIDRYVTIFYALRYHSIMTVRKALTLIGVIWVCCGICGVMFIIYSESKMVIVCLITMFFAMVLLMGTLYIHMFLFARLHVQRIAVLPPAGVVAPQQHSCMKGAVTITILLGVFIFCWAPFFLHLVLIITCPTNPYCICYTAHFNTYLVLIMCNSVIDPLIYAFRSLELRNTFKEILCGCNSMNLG
# assay-overview: cell-based or functional assay
Square brackets hold non-standard residues; d marks the D form.
Form field: % maximal NDP-MSH response at 100 µM (cAMP AlphaScreen) (one value per entry).
Respond with the bare value in %.

{"binder": "cyclo(PRFFNFF[dP]) (SMILES N=C(N)NCCC[C@@H]1NC(=O)[C@@H]2CCCN2C(=O)[C@H]2CCCN2C(=O)[C@H](Cc2ccccc2)NC(=O)[C@H](Cc2ccccc2)NC(=O)[C@H](CC(N)=O)NC(=O)[C@H](Cc2ccccc2)NC(=O)[C@H](Cc2ccccc2)NC1=O) [c[Pro-Arg-Phe-Phe-Asn-Phe-Phe-DPro]]", "obs-value": 35}
{"binder": "cyclo(PRFFWAF[dP]) (SMILES C[C@@H]1NC(=O)[C@H](Cc2c[nH]c3ccccc23)NC(=O)[C@H](Cc2ccccc2)NC(=O)[C@H](Cc2ccccc2)NC(=O)[C@H](CCCNC(=N)N)NC(=O)[C@@H]2CCCN2C(=O)[C@H]2CCCN2C(=O)[C@H](Cc2ccccc2)NC1=O) [c[Pro-Arg-Phe-Phe-Trp-Ala-Phe-DPro]]", "obs-value": 40}

% maximal NDP-MSH response at 100 µM (cAMP AlphaScreen) reading for cyclo(PRFFNLF[dP]) (SMILES CC(C)C[C@@H]1NC(=O)[C@H](CC(N)=O)NC(=O)[C@H](Cc2ccccc2)NC(=O)[C@H](Cc2ccccc2)NC(=O)[C@H](CCCNC(=N)N)NC(=O)[C@@H]2CCCN2C(=O)[C@H]2CCCN2C(=O)[C@H](Cc2ccccc2)NC1=O) [c[Pro-Arg-Phe-Phe-Asn-Leu-Phe-DPro]] : 25

% maximal NDP-MSH response at 100 µM (cAMP AlphaScreen) reading for cyclo(PRFFNKF[dP]) (SMILES N=C(N)NCCC[C@@H]1NC(=O)[C@@H]2CCCN2C(=O)[C@H]2CCCN2C(=O)[C@H](Cc2ccccc2)NC(=O)[C@H](CCCCN)NC(=O)[C@H](CC(N)=O)NC(=O)[C@H](Cc2ccccc2)NC(=O)[C@H](Cc2ccccc2)NC1=O) [c[Pro-Arg-Phe-Phe-Asn-Lys-Phe-DPro]] : 45
